Test system: ACVRL1
Details: concentration: 1 μM, replicates: in singlicate; n = 1
property-label: %Inh

Example entries and their recorded answers appear below.
compound: Cc1cccc2c(-c3ccncn3)c(-c3ccc(F)cc3)nn12
observed: 21%
--
compound: CC(=O)c1c(C)c2cnc(Nc3ccc(N4CCNCC4)cn3)nc2n(C2CCCC2)c1=O
observed: 0%
--
compound: COC(=O)c1cccc(NC(=O)NC2CCN(c3ccnc(Nc4ccc(OC)cc4)n3)C2)c1 (stereo not drawn)
observed: 0%
--
compound: COc1ccc(Nc2nccc(N3CCC(NC(=O)C(C)c4ccc(Cl)cc4)C3)n2)cc1 (stereo not drawn)
observed: 0%
--
compound: Fc1ccc(-c2nc3n(c2-c2ccncc2)CCS3)cc1
observed: 0%

Param readout= %Inh; system= ACVRL1; entry= CCc1ccc(-c2ccc3c(c2)-c2n[nH]cc2S(=O)(=O)N3C)cc1 ; returns value.
0%

Param readout= %Inh; system= ACVRL1; entry= Fc1ccc(-c2nc[nH]c2-c2ccncc2)cc1 ; returns value.
0%

Param readout= %Inh; system= ACVRL1; entry= COc1cccc(NC(=O)Nc2ccc(C)c(-c3ccc(C(=O)Nc4ccncc4)cc3)c2)c1 ; returns value.
0%

Param readout= %Inh; system= ACVRL1; entry= CC(C)c1ccc(O)cc1Nc1ccnc2ccc(C(F)(F)F)cc12 ; returns value.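 Further: KINOMEscan kinase panel screen.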
19%
